# assayed_target: Prostaglandin D2 receptor 2 (Homo sapiens, UniProt Q9Y5Y4)
# test_description: Antagonist activity at CRTh2 (unknown origin) stably expressed in CHO.K1 cells preincubated for 1 hr by radio-labelled [35S]-GTPgammaS binding assay in presence of 4% HSA
# Type: functional, cell-based
measure_name: IC50
Write the numeric value and append its unit.

Query block: Given the compound Cc1c(Cc2ccccc2S(=O)(=O)c2ccccc2)c2c(n1CC(=O)O)CCNC2=O , what is its reported IC50?
Result block: 10 nM

* * *

Please respond with reported inhibition for every item in the list.
# assayed_target: Thromboxane A2 receptor (Homo sapiens)
# test_description: Inhibition of at prostanoid TP receptor (unknown origin) at 10 uM

Value sought for every listed compound: inhibition.
1. COc1ccc(S(=O)(=O)c2ccc(F)cc2)c(Cc2c3c(n(CC(=O)O)c2C)CCNC3=O)c1
2. Cc1c(Cc2ccccc2S(=O)(=O)c2cccc(F)c2)c2c(n1CC(=O)O)CCNC2=O
3. Cc1c(Cc2ccccc2S(=O)(=O)c2ccccc2)c2c(n1CC(=O)O)CCN(Cc1ccccc1)C2=O
4. Cc1c(Cc2ccccc2S(=O)(=O)c2ccccc2)c2c(=O)n(C)ccc2n1CC(=O)O
5. COc1ccc(S(=O)(=O)c2ccccc2)c(Cc2c3c(n(CC(=O)O)c2C)CCNC3=O)c1

Result block:
1: < 30%; 2: < 30%; 3: < 30%; 4: < 30%; 5: < 30%

* * *

# test_description: AUC (0 to infinity) in rat at 10 mg/kg, po
# Type: ADME, organism-based
# Set-up: time infinity, dose 10 mg/kg, route oral
# protocol_conditions: plasma
Please respond with reported AUC(0-inf) for every item in the list.
Answers are plain numbers, in ng·h/mL.

Observe how each entry below is paired with its result.
Cc1c(Cc2ccccc2S(=O)(=O)c2ccccc2)c2c(n1CC(=O)O)CC(C)(C)NC2=O	275
Cc1c(Cc2ccccc2S(=O)(=O)c2ccc(F)cc2)c2c(n1CC(=O)O)CCNC2=O	380

Query block: Given the compound COc1ccc(S(=O)(=O)c2ccc(F)cc2)c(Cc2c3c(n(CC(=O)O)c2C)CCNC3=O)c1 , what is its reported AUC(0-inf)?
Result block: 76

* * *

Please respond with reported Papp A→B for every item in the list.
# test_description: Apparent permeability across apical to basolateral side of human Caco2 cells at pH 7.4
# Type: ADME, cell-based
# protocol_conditions: Caco-2, pH 7.4
One number for each entry, in ×10⁻⁶ cm/s.

Observe how each entry below is paired with its result.
Cc1c(Cc2ccccc2S(=O)(=O)c2ccccc2)c2c(n1CC(=O)O)CC(C)(C)NC2=O	1.1
Cc1c(Cc2ccccc2S(=O)(=O)c2ccccc2)c2c(n1CC(=O)O)CCN(C(C)C(F)(F)F)C2=O (stereo not drawn)	0.6

From here, focus on the item given below.
Query block: Given the compound Cc1c(Cc2ccccc2S(=O)(=O)c2ccccc2)c2c(=O)n(C(F)F)ccc2n1CC(=O)O , what is its reported Papp A→B?
Result block: 0.4

* * *

# assayed_target: Prostaglandin D2 receptor 2 (Homo sapiens, UniProt Q9Y5Y4)
# Sequence (Q9Y5Y4 whole entry): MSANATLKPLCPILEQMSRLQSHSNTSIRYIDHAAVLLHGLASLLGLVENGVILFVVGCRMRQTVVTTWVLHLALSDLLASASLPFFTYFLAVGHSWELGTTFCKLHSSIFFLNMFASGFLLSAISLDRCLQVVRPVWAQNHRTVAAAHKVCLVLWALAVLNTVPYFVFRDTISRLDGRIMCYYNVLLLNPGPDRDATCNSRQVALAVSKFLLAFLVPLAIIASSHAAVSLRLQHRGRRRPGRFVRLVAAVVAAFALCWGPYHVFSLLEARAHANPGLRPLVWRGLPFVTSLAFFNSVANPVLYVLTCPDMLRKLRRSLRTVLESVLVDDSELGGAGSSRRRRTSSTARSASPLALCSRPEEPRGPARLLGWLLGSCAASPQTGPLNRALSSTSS
# test_description: Antagonist activity at CRTh2 (unknown origin) stably expressed in PGD2-stimulated CHO.K1 cells preincubated for 1 hr by radio-labelled [35S]-GTPgammaS binding assay
# Assay type: functional, cell-based
Please respond with reported IC50 for every item in the list.
Answers are plain numbers, in nM.

Observe how each entry below is paired with its result.
Cc1c(Cc2cc(C#N)ccc2S(=O)(=O)c2ccccc2)c2c(n1CC(=O)O)CCNC2=O	28
Cc1c(Cc2ccccc2S(=O)(=O)c2ccccc2)c2c(n1CC(=O)O)CCN(C(C)C)C2=O	9
Cc1c(Cc2ccccc2S(=O)(=O)c2ccccc2)c2c(n1CC(=O)O)CCN(C(C)C(F)(F)F)C2=O (configuration not stated)	6
Cc1c(Cc2ccccc2S(=O)(=O)N2CCOCC2)c2c(n1CC(=O)O)CCNC2=O	22

Value sought for every listed compound: IC50.
1. Cc1c(Cc2ccccc2S(=O)(=O)c2ccccc2)c2c(n1CC(=O)O)CCNC2=O
2. Cc1c(Cc2ccccc2S(=O)(=O)c2ccc(F)cc2)c2c(n1CC(=O)O)CCNC2=O
3. Cc1c(Cc2ccccc2S(=O)(=O)c2ccccc2)c2c(n1[C@H](C)C(=O)O)CCNC2=O
4. Cc1c(Cc2ccccc2S(=O)(=O)N(C)Cc2ccccc2)c2c(n1CC(=O)O)CCNC2=O
5. Cc1c(Cc2ccccc2-c2cccc3ccccc23)c2c(n1CC(=O)O)CCNC2=O
6. CNC(=O)c1cccc(S(=O)(=O)c2ccccc2Cc2c3c(n(CC(=O)O)c2C)CCNC3=O)c1
7. Cc1c(Cc2ccccc2Cc2ccccc2)c2c(n1CC(=O)O)CCNC2=O

Result block:
1. 5
2. 3.3
3. 430
4. 26
5. 480
6. 240
7. 120

Value sought for every listed compound: IC50.
1. Cc1c(Cc2ccccc2S(=O)(=O)c2ccccc2)c2c(Cl)nccc2n1CC(=O)O
2. CCN(Cc1ccccc1Cc1c2c(n(CC(=O)O)c1C)CCNC2=O)C(=O)C1CC1
3. Cc1c(Cc2ccccc2S(=O)(=O)c2ccccc2)c2c(n1[C@@H](C)C(=O)O)CCNC2=O
4. Cc1c(Cc2ccccc2S(=O)(=O)c2ccc(OC(F)(F)F)cc2)c2c(n1CC(=O)O)CCNC2=O
5. COc1cccc(S(=O)(=O)c2ccccc2)c1Cc1c2c(n(CC(=O)O)c1C)CCNC2=O

Result block:
16
240
91
6.6
4500

Query block: Give the reported IC50 for Cc1c(Cc2ccccc2C(=O)c2ccccc2)c2c(n1CC(=O)O)CCNC2=O (system: Prostaglandin D2 receptor 2 (Homo sapiens, UniProt Q9Y5Y4)).
Result block: 810

* * *

# assayed_target: Prostaglandin D2 receptor 2 (Homo sapiens)
# protocol_conditions: CHO.K1
# Description: Antagonist activity at CRTh2 (unknown origin) stably expressed in PGD2-stimulated CHO.K1 cells assessed as dissociation half-life at 5 to 10 times IC50 after 2 hrs by radio-labelled [35S]-GTPgammaS binding assay
measure_name: T1/2

Observe how each entry below is paired with its result.
Cc1c(Cc2ccccc2S(=O)(=O)c2ccccc2)c2c(Cl)nccc2n1CC(=O)O	2 h
Cc1c(Cc2ccccc2S(=O)(=O)c2ccccc2)c2c(n1CC(=O)O)CCN(C(C)C)C2=O	2.6 h
COc1ccc(S(=O)(=O)c2ccc(F)cc2)c(Cc2c3c(n(CC(=O)O)c2C)CC(C)(C)NC3=O)c1	20 h
Cc1c(Cc2ccccc2S(=O)(=O)c2ccccc2)c2c(=O)[nH]ccc2n1CC(=O)O	1.3 h
COc1ccc(S(=O)(=O)c2ccccc2)c(Cc2c3c(n(CC(=O)O)c2C)CCNC3=O)c1	4.2 h
CNC(=O)c1ccc(Cc2c3c(n(CC(=O)O)c2C)CCNC3=O)c(S(=O)(=O)c2ccccc2)c1	4.6 h

Value sought for every listed molecule: T1/2.
1. Cc1c(Cc2ccc(S(=O)(=O)Cc3ccccc3)cc2)c2c(n1CC(=O)O)CCNC2=O
2. COc1ccc(S(=O)(=O)c2ccc(F)cc2)c(Cc2c3c(n(CC(=O)O)c2C)CCNC3=O)c1
3. Cc1c(Cc2ccccc2S(=O)(=O)c2ccccc2)c2c(n1CC(=O)O)CCN(C(C)C(F)(F)F)C2=O (stereo unspecified)

Result block:
["0.9 h", "23 h", "2.1 h"]

Value sought for every listed molecule: T1/2.
1. Cc1c(Cc2ccccc2S(=O)(=O)c2ccccc2)c2c(=O)n(C(F)F)ccc2n1CC(=O)O
2. Cc1c(Cc2cc(F)ccc2S(=O)(=O)c2ccccc2)c2c(n1CC(=O)O)CCNC2=O
3. COc1ccc(S(=O)(=O)c2ccccc2Cc2c3c(n(CC(=O)O)c2C)CCNC3=O)cc1
4. Cc1c(Cc2ccccc2S(=O)(=O)c2cccc(Cl)c2)c2c(n1CC(=O)O)CCNC2=O
5. COc1cccc(Cc2c3c(n(CC(=O)O)c2C)CCNC3=O)c1S(=O)(=O)c1ccccc1

Result block:
1: 21 h; 2: 1.7 h; 3: 3.2 h; 4: 1.2 h; 5: 0.4 h

Value sought for every listed molecule: T1/2.
1. Cc1c(Cc2ccccc2S(=O)(=O)N(C)Cc2ccccc2)c2c(n1CC(=O)O)CCNC2=O
2. Cc1c(Cc2ccccc2S(=O)(=O)c2ccccc2)c2c(n1CC(=O)O)CCNC2=O

Result block:
1. 0.6 h
2. 2.3 h
